experimental.system: MjNep1 (Methanocaldococcus jannaschii, UniProt Q57977 1-205)
Sequence (Q57977 whole entry): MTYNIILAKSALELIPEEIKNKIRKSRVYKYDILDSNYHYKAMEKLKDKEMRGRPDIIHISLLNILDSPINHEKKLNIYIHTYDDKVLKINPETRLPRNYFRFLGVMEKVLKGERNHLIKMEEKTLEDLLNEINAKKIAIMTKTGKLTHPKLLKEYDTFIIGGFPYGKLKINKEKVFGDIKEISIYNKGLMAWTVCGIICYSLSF
assay.name: NMR 15N-HSQC titration

# binder, Kd
records = [
    ("UUCAAC (ssRNA) [RNA 1]", "> 1 µM"),
]
